target: Recombinant human HDAC1 (Homo sapiens); construct: FLAG (C); made in house; assay: Human HDAC enzyme inhibitor Fluor-de-Lys assay, HDAC1; format: biochemical
Sequence (Q13547 whole entry): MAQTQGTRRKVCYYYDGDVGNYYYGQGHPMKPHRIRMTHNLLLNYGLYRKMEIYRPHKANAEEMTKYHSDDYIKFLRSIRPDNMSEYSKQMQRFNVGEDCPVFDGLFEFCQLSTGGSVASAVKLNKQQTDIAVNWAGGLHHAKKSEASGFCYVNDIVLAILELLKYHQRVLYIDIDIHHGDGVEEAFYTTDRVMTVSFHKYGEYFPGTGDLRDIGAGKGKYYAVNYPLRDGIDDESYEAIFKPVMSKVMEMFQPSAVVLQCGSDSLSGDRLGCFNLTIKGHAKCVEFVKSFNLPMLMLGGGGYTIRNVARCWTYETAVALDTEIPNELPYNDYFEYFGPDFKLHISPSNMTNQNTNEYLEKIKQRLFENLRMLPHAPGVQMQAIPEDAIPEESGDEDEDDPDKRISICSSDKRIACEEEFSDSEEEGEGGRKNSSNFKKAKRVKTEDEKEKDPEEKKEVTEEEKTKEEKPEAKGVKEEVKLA
Kindly state pIC50 for each of the entries shown.
pIC50 here is simply -log10 of the concentration when that concentration is written in mol/L.

Input: Quick one: give measured pIC50 for CCC(=O)CCCCC[C@H](NC(=O)[C@H]1CC12CCN(C)CC2)c1nc(Cl)c(-c2cc3ccccc3nc2O)[nH]1
Output: 7.05

Input: Quick one: give measured pIC50 for C=CCN1CCC2(CC1)C[C@@H]2C(=O)N[C@@H](CCCCCC(=O)CC)c1ncc(-c2cccc3c2C2CCC3N2CC=C)[nH]1 (stereo partly drawn)
Output: 8.27

Input: Quick one: give measured pIC50 for CCC(=O)CCCCC[C@H](NC(=O)[C@H]1CC12CCN(C)CC2)c1ncc(-c2ccc3nc(C4CC4)ccc3c2)o1
Output: 8.86

====

target: HDAC6 (Homo sapiens, UniProt Q9UBN7); test: Human HDAC enzyme inhibitor Fluor-de-Lys assay, HDAC6; assay type: biochemical
Sequence (Q9UBN7 whole entry): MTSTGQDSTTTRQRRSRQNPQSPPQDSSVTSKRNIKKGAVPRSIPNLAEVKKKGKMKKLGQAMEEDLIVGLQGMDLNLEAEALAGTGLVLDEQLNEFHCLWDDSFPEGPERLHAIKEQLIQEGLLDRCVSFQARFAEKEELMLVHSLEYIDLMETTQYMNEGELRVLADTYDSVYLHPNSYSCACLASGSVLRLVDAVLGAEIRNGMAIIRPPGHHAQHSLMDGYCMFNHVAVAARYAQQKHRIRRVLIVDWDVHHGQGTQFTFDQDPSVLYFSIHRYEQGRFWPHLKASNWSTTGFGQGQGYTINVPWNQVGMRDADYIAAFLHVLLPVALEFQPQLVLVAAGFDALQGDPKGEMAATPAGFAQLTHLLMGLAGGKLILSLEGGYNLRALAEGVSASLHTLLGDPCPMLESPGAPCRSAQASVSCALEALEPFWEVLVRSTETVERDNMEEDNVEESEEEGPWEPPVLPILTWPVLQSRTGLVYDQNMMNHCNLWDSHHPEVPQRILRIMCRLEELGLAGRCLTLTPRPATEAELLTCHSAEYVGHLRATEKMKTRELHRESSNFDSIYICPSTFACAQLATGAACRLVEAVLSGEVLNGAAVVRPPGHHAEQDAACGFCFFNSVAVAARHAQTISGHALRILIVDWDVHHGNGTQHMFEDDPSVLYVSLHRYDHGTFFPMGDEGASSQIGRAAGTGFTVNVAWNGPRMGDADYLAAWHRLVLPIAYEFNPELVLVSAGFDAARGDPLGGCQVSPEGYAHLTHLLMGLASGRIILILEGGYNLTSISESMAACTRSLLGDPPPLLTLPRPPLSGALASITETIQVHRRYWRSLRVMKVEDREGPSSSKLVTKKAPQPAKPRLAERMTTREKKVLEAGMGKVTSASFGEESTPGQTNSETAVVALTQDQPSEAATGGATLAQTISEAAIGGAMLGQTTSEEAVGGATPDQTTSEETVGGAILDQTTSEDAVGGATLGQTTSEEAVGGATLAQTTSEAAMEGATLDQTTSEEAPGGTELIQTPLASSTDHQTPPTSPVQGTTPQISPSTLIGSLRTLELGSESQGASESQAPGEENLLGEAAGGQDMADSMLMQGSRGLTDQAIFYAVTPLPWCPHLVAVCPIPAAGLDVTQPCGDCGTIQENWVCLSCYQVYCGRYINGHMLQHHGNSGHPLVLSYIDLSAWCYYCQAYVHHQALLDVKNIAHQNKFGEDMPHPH
Kindly state pIC50 for each of the entries shown.
pIC50 here is simply -log10 of the concentration when that concentration is written in mol/L.

Input: Quick one: give measured pIC50 for CCC(=O)CCCCC[C@H](NC(=O)C1CC2(CCN(C)CC2)C1)c1ncc(-c2ccc3nn(C)cc3c2)[nH]1
Output: 5.24

Input: Quick one: give measured pIC50 for CCC(=O)CCCCC[C@H](NC(=O)[C@H]1CC12CCN(CC)CC2)c1ncc(-c2ccc3nc(C4CC4)ccc3c2)[nH]1
Output: 5.13

Input: Quick one: give measured pIC50 for CCN1CCC2(CC1)C[C@@H]2C(=O)N[C@@H](CCCCCC(=O)CC1CCC1)c1ncc(-c2cc3ccc(C)nc3cc2OC)o1
Output: 5.03

Input: Quick one: give measured pIC50 for CCC(=O)CCCCC[C@H](NC(=O)[C@H]1CC12CCN(C)CC2)c1nnc(-c2cc3ccc(C)nc3cc2OC)o1
Output: 5.69

Input: Quick one: give measured pIC50 for CCC(=O)CCCCC[C@H](NC(=O)C1(C)CC12CCN(C(C)C)CC2)c1ncc(-c2ccc3nc(C)ccc3c2)[nH]1 (single isomer, unassigned)
Output: 4.72

Input: Quick one: give measured pIC50 for CCC(=O)CCCCC[C@H](NC(=O)[C@H]1CC12CCN(CC)CC2)c1ncc(-c2ccc3c(=O)n(CC)ccc3c2)o1
Output: 5.19

Input: Quick one: give measured pIC50 for C=CCN1CCC2(CC1)C[C@@H]2C(=O)N[C@@H](CCCCCC(=O)CC)c1ncc(-c2ccc3c(c2)C2CCC3N2CC=C)[nH]1 (stereo partly shown)
Output: 5.02

Input: Quick one: give measured pIC50 for CCC(=O)CCCCC[C@H](NC(=O)[C@H]1CC12CCN(C)CC2)c1ncc(-c2ccc3nc(CC)sc3c2)[nH]1
Output: 5.44

Input: Quick one: give measured pIC50 for CCC(=O)CCCCC[C@H](NC(=O)[C@H]1CC[C@]2(CC1)OC(=O)c1ncccc12)c1ncc(-c2cc3ccccc3nc2OC)[nH]1
Output: 5.83

Input: Quick one: give measured pIC50 for CCC(=O)CCCCC[C@H](NC(=O)[C@H]1CC12CCN(CC)CC2)c1ncc(-c2ccc(-c3nccs3)cc2)o1
Output: 6.02

Input: Quick one: give measured pIC50 for CCC(=O)CCCCC[C@H](NC(=O)[C@@]1(C)CC12CCN(C(C)C)CC2)c1ncc(-c2ccc3nc(C)ccc3c2)[nH]1 (single isomer, unassigned)
Output: 5.24

Input: Quick one: give measured pIC50 for CCC(=O)CCCCC[C@H](NC(=O)C1CN(C)C1)c1ncc(-c2ccc3c(c2)C2CCC3C2)[nH]1 (stereo partly shown)
Output: 5.19

Input: Quick one: give measured pIC50 for CCC(=O)CCCCC[C@H](NC(=O)[C@H]1CC12CCN(CC)CC2)c1ncc(-c2ccc(F)cc2OC)[nH]1
Output: 5.47

Input: Quick one: give measured pIC50 for CCC(=O)CCCCC[C@H](NC(=O)[C@H]1CC12CCN(CC)CC2)c1ncc(-c2ccc3c(=O)n(CC)ccc3c2)[nH]1
Output: 5.53

Input: Quick one: give measured pIC50 for CCC(=O)CCCCC[C@H](NC(=O)C1=NOC2(CCN(C)CC2)C1)c1ncc(-c2cc3ccncc3nc2OC)o1
Output: 6.10

Input: Quick one: give measured pIC50 for CCC(=O)CCCCC[C@H](NC(=O)C1=NOC2(CCN(C)CC2)C1)c1ncc(-c2cc3ccccc3nc2OC)[nH]1
Output: 5.82

Input: Quick one: give measured pIC50 for CN1CCC2(CC1)C[C@@H]2C(=O)N[C@@H](CCCCCC(=O)CC(F)(F)F)c1ncc(-c2ccc(F)cc2)[nH]1
Output: 5.17

Input: Quick one: give measured pIC50 for CCC(=O)CCCCC[C@H](NC(=O)[C@H]1CC12CCOCC2)c1ncc(-c2cc3ccccc3nc2OC)[nH]1
Output: 6.21

Input: Quick one: give measured pIC50 for CCC(=O)CCCCC[C@H](NC(=O)C1CC12CCC(N(C)C)CC2)c1ncc(-c2cc3ccccc3nc2OC)[nH]1 (single isomer, unassigned) [Compound 128]
Output: 6.12

Input: Quick one: give measured pIC50 for CCC(=O)CCCCC[C@H](NC(=O)[C@H]1CC12CCN(C)CC2)c1ncc(-c2cccnc2OC)[nH]1
Output: 5.71

Input: Quick one: give measured pIC50 for CCC(=O)CCCCC[C@H](NC(=O)[C@H]1CC12CCN(C)CC2)c1ncc(-c2ccc(-c3ccc(C4CC4)nc3)cc2)o1
Output: 5.44

Input: Quick one: give measured pIC50 for CCC(=O)CCCCC[C@H](NC(=O)C1CC12CCN(C)C(C)(C)C2)c1ncc(-c2ccc3nc(C)ccc3c2)[nH]1 (single isomer, unassigned) [Compound 130]
Output: 5.67

Input: Quick one: give measured pIC50 for CCC(=O)CCCCC[C@H](NC(=O)[C@H]1CC12CCN(C)CC2)c1ncc(-c2cc3ccc(=O)n(C)c3cc2OC)o1
Output: 6.37

====

Target: Recombinant human HDAC8 (Homo sapiens)
Construct: purchased Enzo Life Sciences BML-SE145-0100
Sequence (Q9BY41 1-377): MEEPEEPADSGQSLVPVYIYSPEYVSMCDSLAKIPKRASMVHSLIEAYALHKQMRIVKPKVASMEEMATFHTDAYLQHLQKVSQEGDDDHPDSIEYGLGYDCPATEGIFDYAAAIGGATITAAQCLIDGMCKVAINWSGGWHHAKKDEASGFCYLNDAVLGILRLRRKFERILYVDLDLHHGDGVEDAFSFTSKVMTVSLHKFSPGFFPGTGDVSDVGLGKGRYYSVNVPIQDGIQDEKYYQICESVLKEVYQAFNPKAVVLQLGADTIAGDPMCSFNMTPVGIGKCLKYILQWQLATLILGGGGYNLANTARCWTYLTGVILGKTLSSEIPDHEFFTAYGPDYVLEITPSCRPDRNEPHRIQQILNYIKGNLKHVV
Assay: Human HDAC enzyme inhibitor Fluor-de-Lys assay, HDAC8
Assay type: biochemical
Conditions: recombinant human HDAC8, Fluor-de-Lys assay
ENDPOINT_LABEL: pIC50
pIC50 here is simply -log10 of the concentration when that concentration is written in mol/L.

Input: Quick one: give measured pIC50 for CCC(=O)CCCCC[C@H](NC(=O)[C@H]1CC[C@]2(CC1)OC(=O)c1ccncc12)c1ncc(-c2ccccc2)[nH]1
Output: 5.31

Input: Quick one: give measured pIC50 for CCC(=O)CCCCCC(NC(=O)C1CCC2(CC1)OC(=O)c1ccncc12)c1nnc(-c2cc3ccccc3nc2OC)o1 (stereo not shown)
Output: 4.59

Input: Quick one: give measured pIC50 for CCC(=O)CCCCC[C@H](NC(=O)C1CC12CCN(CC)CC2)c1nc(-c2ccc(F)cc2)[nH]c1-c1ccsc1 (stereo partly shown)
Output: 4.42

Input: Quick one: give measured pIC50 for CCC(=O)CCCCC[C@H](NC(=O)[C@@H]1C[C@@]12CCN(C)C2)c1ncc(-c2cc3ccccc3nc2OC)[nH]1
Output: 4.86

Input: Quick one: give measured pIC50 for CCC(=O)CCCCC[C@H](NC(=O)C1CC2(C1)CN(CC)C2)c1ncc(-c2cc3ccccc3nc2OC)[nH]1
Output: 5.29

Input: Quick one: give measured pIC50 for CCC(=O)CCCCC[C@H](NC(=O)C1CC2(CCN(C)CC2)C1)c1ncc(-c2cc3ccccc3nc2OC)[nH]1
Output: 5.72

Input: Quick one: give measured pIC50 for CCC(=O)CCCCC[C@H](NC(=O)CC1CC2(CNC2)C1)c1nnc(-c2cc3ccccc3nc2OC)o1
Output: 4.53

Input: Quick one: give measured pIC50 for CCC(=O)CCCCC[C@H](NC(=O)[C@@H]1CC12CCCN(C)C2)c1ncc(-c2cc3ccccc3nc2OC)[nH]1 (stereo partly shown)
Output: 5.04

Input: Quick one: give measured pIC50 for CCC(=O)CCCCC[C@H](NC(=O)C1CC12CCN(CC)CC2)c1nc(-c2ccc(F)cc2)[nH]c1-c1cnn(C)c1 (stereo partly shown)
Output: 4.65
